IC50 by entry:
biological target: UniProtKB O00329; test: PI3K kinase activity, δ isoform
Sequence (O00329 whole entry, one chain of several, canonical isoform): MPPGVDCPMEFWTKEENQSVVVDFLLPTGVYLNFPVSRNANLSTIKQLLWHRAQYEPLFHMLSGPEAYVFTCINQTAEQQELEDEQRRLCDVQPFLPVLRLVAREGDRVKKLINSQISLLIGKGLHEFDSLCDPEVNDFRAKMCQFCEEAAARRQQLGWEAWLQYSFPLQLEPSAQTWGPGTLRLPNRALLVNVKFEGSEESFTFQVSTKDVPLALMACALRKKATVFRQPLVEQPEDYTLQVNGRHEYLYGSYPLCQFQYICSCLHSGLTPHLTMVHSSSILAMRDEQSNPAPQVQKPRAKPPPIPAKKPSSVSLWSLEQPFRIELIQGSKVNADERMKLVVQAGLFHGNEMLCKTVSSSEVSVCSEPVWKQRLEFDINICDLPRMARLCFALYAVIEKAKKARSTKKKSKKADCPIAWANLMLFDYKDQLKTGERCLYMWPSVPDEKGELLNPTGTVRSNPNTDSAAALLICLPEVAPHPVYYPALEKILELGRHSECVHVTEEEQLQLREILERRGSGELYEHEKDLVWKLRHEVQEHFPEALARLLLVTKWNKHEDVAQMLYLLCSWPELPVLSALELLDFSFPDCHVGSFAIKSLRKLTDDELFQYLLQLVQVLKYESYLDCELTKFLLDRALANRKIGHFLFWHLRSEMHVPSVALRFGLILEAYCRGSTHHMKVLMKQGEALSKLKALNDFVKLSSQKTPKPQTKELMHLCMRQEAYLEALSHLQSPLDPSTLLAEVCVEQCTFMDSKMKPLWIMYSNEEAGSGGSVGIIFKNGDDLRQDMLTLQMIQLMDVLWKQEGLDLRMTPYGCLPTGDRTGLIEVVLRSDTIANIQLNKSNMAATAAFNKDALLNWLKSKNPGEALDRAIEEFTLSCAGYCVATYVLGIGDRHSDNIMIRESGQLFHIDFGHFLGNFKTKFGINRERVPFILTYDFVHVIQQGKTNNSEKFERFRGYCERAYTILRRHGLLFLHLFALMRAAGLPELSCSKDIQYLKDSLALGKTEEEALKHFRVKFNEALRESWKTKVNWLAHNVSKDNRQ
Please state the figure in nM; there is no need to write the unit.

Example compounds with recorded IC50:
>>> value_measured("Cc1c(CNCCCN(C)C)cc2c(N3CCOCC3)nc(-c3cnc(N)cc3C(F)(F)F)nn12")
36.6
>>> value_measured("COC(=O)Nc1cc(C(F)(F)F)c(-c2nc(N3CCOCC3)c3cc(CN4CCN(S(C)(=O)=O)CC4)c(C)n3n2)cn1")
75.2
>>> value_measured("CCNC(=O)Nc1cc(C(F)(F)F)c(-c2nc(N3CCOCC3)c3cc(CN4CCN(S(C)(=O)=O)CC4)c(C)n3n2)cn1")
6.22
>>> value_measured("Cc1c(CN2CCN(S(C)(=O)=O)CC2)cc2c(N3CCOCC3)nc(-c3cnc(NC(=O)NC4CC4)cc3C(F)(F)F)nn12")
3.73
>>> value_measured("Cc1c(CN2CCC(C(C)(C)O)CC2)cc2c(N3CCOCC3)nc(-c3cnc(N)cc3C(F)(F)F)nn12")
19.6

# IC50 lookup, item Cc1c(CN2CCC(N(C)C)CC2)cc2c(N3CCOCC3)nc(-c3cnc(N)cc3C(F)(F)F)nn12
27.6

What does the record list as IC50 for Cc1c(CN2CCN(S(C)(=O)=O)CC2)cc2c(N3CCOCC3)nc(-c3cnc(NC(=O)Nc4ccc(F)cc4)cc3C(F)(F)F)nn12 ?
10.1

Returns the measured IC50 for the input compound. Input: Cc1c(CN2CCN(S(C)(=O)=O)CC2)cc2c(N3CCOC[C@@H]3C)nc(-c3cnc(N)cc3C(F)(F)F)nn12
79.7

State the recorded IC50 for this entry: Cc1c(CN2CCN(C(=O)[C@H](C)O)CC2)cc2c(N3CCOCC3)nc(-c3cnc(N)cc3C(F)(F)F)nn12
85.6

---

Readings of inhibition at 0.1 µM for the listed molecules
biological target: PI3Kγ (Homo sapiens); assay: PI3K kinase activity, γ isoform; type: biochemical; details: compound 100 nM; read-out: IH (%) @ 100 nM, γ

Answered cases to consult:
>>> value_measured("COC(=O)Nc1cc(C(F)(F)F)c(-c2nc(N3CCOCC3)c3cc(CN4CCN(S(C)(=O)=O)CC4)c(C)n3n2)cn1 [Compound P-17]")
"47%"
>>> value_measured("COCCCNCc1cc2c(N3CCOCC3)nc(-c3cnc(N)cc3C(F)(F)F)nn2c1C [Compound P-3]")
"2.94%"

What does the data say about its inhibition at 0.1 µM? Entry: Cc1c(CN2CCN(S(C)(=O)=O)CC2)cc2c(N3CCOCC3)nc(-c3cnc(N)cc3C(F)(F)F)nn12 [Compound P-9]
31.4%

Please give the measured inhibition at 0.1 µM for this molecule: Cc1c(CN2CCN(S(C)(=O)=O)CC2)cc2c(N3CCOCC3)nc(-c3cnc(NC(=O)NC4CC4)cc3C(F)(F)F)nn12 [Compound P-20]
68.3%

---

Let's look at some compounds and their measured AUC(0-t).
experiment: Preliminary pharmacokinetic test, intravenous injection; type: in vivo, SD rats; details: male, SD, rat, plasma, iv, 5 mg/kg, rats, intravenous injection 5 mg/kg, Mean; tested as monomesylate
Only the number, expressed in ng·h/mL, is required.

>>> value_measured("COC(=O)Nc1cc(C(F)(F)F)c(-c2nc(N3CCOCC3)c3cc(CN4CCN(S(C)(=O)=O)CC4)cn3n2)cn1 [CYH33, reference compound]")
3540

Sample COC(=O)Nc1cc(C(F)(F)F)c(-c2nc(N3CCOCC3)c3cc(CN4CCN(S(C)(=O)=O)CC4)c(C)n3n2)cn1 — what was its AUC(0-t)?
2990

---

biological target: PI3Kα (Homo sapiens, UniProt P42336); assay: PI3K kinase activity, α isoform; details: read-out: IH (%) @ 20 nM, α
Sequence (P42336 whole entry, canonical isoform): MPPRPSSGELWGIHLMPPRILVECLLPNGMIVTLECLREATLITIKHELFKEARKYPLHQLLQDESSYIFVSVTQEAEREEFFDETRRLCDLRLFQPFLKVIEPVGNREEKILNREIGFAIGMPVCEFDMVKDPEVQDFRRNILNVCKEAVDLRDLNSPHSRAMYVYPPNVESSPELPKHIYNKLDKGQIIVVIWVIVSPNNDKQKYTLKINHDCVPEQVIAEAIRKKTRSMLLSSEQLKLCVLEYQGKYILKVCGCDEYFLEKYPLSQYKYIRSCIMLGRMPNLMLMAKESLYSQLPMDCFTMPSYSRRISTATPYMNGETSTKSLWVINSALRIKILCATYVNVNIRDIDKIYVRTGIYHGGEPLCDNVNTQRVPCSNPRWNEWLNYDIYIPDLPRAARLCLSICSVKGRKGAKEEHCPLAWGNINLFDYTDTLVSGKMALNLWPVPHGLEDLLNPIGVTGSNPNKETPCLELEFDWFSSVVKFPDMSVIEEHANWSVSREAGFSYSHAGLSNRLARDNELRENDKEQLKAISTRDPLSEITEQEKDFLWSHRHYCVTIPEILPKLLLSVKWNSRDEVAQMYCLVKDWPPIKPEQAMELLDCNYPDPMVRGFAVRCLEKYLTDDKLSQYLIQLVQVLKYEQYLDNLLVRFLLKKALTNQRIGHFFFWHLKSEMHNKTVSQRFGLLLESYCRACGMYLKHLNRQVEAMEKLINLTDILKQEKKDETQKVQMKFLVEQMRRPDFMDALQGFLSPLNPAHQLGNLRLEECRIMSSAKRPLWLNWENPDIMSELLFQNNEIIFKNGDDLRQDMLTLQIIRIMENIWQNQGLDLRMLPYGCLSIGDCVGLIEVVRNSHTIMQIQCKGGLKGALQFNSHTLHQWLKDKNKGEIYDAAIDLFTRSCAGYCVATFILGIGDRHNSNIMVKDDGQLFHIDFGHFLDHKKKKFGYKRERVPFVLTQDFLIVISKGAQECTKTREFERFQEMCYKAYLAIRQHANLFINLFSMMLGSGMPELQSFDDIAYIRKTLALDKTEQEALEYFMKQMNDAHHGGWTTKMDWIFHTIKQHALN
Sequence (P27986 whole entry partner, canonical isoform): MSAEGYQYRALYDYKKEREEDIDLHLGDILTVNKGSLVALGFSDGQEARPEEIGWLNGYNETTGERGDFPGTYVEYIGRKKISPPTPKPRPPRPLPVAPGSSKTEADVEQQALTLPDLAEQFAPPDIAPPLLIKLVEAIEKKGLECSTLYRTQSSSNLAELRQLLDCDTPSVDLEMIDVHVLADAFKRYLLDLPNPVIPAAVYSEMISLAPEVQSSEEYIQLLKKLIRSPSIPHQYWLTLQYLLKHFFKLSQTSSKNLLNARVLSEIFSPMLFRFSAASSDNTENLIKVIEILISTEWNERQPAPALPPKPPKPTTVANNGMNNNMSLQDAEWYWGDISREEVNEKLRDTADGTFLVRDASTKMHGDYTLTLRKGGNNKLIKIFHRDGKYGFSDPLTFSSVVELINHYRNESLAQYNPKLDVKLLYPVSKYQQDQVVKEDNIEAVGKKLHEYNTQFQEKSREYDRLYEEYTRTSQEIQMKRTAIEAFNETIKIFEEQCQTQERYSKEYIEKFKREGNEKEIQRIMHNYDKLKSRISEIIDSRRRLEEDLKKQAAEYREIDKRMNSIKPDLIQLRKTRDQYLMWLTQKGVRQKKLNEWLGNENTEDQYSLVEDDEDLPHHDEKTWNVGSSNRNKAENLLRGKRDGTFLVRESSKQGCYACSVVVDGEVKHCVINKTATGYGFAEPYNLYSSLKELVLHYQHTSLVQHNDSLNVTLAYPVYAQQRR
property_name: inhibition at 0.02 µM (%)
Give the value, in units of %, as a plain number.

Use the examples below as a reference point.
>>> value_measured("Cc1c(CN2CCN(C(=O)C(C)(C)O)CC2)cc2c(N3CCOCC3)nc(-c3cnc(N)cc3C(F)(F)F)nn12")
30.5
>>> value_measured("CS(=O)(=O)N1CCN(Cc2cc3nc(-c4cccc5[nH]ncc45)nc(N4CCOCC4)c3s2)CC1 [GDC0941, reference compound]")
41.7

Endpoint output: inhibition at 0.02 µM of Cc1c(CN2CCC(N(C)C)CC2)cc2c(N3CCOCC3)nc(-c3cnc(N)cc3C(F)(F)F)nn12 . Value?
3.6

inhibition at 0.02 µM for Cc1c(CN2CCC(C(C)(C)O)CC2)cc2c(N3CCOCC3)nc(-c3cnc(N)cc3C(F)(F)F)nn12 ?
-0.6

Returns the measured inhibition at 0.02 µM for the input molecule. Input: COCCCNCc1cc2c(N3CCOCC3)nc(-c3cnc(N)cc3C(F)(F)F)nn2c1C
6.72

Param item = Cc1c(CN2CCN(S(C)(=O)=O)CC2)cc2c(N3CCOCC3)nc(-c3cnc(NC(=O)NC(C)C)cc3C(F)(F)F)nn12 ; retrieve measured inhibition at 0.02 µM.
50

Report inhibition at 0.02 µM for CS(=O)(=O)N1CCN(Cc2cc3c(N4CCOCC4)nc(-c4cnc(N)cc4C(F)(F)F)nn3c2Cl)CC1 please.
72.8

Bench note: what inhibition at 0.02 µM did CCNC(=O)Nc1cc(C(F)(F)F)c(-c2nc(N3CCOCC3)c3cc(CN4CCN(S(C)(=O)=O)CC4)c(C)n3n2)cn1 show?
89.3

For the molecule shown here, Cc1c(CN2CCN(S(C)(=O)=O)CC2)cc2c(N3CCOCC3)nc(-c3cnc(NC(=O)Nc4ccc(F)cc4)cc3C(F)(F)F)nn12 , give the reported inhibition at 0.02 µM.
77.9

---

test: Preliminary pharmacokinetic test, intravenous injection; format: in vivo, SD rats; details: male, SD, rat, plasma, iv, 5 mg/kg, rats, intravenous injection 5 mg/kg, Mean; tested as monomesylate; read-out: Vss
property_name: Vd (L/kg)
Could you give me the number in L/kg? Just the number is fine.

Entry COC(=O)Nc1cc(C(F)(F)F)c(-c2nc(N3CCOCC3)c3cc(CN4CCN(S(C)(=O)=O)CC4)c(C)n3n2)cn1 has what Vd?
4.17

---

Assay: Preliminary pharmacokinetic test, intragastric administration
Format: in vivo, SD rats
Conditions: male, SD, rat, plasma, oral; rats, 10 mg/kg versus 5 mg/kg intravenous; monomesylate; read-out: F (absolute bioavailability)
Description: 1. 14 healthy SD rats, male, weigh 200-220 g, were taken to be randomly divided into 4 groups, 3-4 in each group, and were administered the tested compound P-17 and compound CYH33 (compared with compound P-17, missing a methyl group on 7-position) via intragastric administration (10 mg/kg) and intravenous injection (5 mg/kg) respectively, the specific arrangements are shown in the following table 3: The rats were fasted for 12 h before experiment, water was taken freely. […]
property_name: bioavailability (%)
Give your result in % as a bare value.

Report bioavailability for COC(=O)Nc1cc(C(F)(F)F)c(-c2nc(N3CCOCC3)c3cc(CN4CCN(S(C)(=O)=O)CC4)c(C)n3n2)cn1 [Compound P-17] please.
95.8

---

experiment: Preliminary pharmacokinetic test, intragastric administration; type: in vivo, SD rats; details: male, SD, rat, plasma, oral, 10 mg/kg, rats, 10 mg/kg, Mean; monomesylate; read-out: T½ (converted)
property_name: half-life (h)
Give the value, in units of h, as a plain number.

Given the compound COC(=O)Nc1cc(C(F)(F)F)c(-c2nc(N3CCOCC3)c3cc(CN4CCN(S(C)(=O)=O)CC4)c(C)n3n2)cn1 , what is its reported half-life?
2.77

---

molecular target: PI3Kγ (Homo sapiens, UniProt P48736); assay: PI3K kinase activity, γ isoform; assay type: biochemical; conditions: compound 100 nM; read-out: IH (%) @ 100 nM, γ;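 also: kinase reaction run in 384-well plates, with inhibition normalised between the 0% and 100% reference reactions. IC50 derived from a ten-point, fourfold serial dilution series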
Sequence (P48736 whole entry, canonical isoform): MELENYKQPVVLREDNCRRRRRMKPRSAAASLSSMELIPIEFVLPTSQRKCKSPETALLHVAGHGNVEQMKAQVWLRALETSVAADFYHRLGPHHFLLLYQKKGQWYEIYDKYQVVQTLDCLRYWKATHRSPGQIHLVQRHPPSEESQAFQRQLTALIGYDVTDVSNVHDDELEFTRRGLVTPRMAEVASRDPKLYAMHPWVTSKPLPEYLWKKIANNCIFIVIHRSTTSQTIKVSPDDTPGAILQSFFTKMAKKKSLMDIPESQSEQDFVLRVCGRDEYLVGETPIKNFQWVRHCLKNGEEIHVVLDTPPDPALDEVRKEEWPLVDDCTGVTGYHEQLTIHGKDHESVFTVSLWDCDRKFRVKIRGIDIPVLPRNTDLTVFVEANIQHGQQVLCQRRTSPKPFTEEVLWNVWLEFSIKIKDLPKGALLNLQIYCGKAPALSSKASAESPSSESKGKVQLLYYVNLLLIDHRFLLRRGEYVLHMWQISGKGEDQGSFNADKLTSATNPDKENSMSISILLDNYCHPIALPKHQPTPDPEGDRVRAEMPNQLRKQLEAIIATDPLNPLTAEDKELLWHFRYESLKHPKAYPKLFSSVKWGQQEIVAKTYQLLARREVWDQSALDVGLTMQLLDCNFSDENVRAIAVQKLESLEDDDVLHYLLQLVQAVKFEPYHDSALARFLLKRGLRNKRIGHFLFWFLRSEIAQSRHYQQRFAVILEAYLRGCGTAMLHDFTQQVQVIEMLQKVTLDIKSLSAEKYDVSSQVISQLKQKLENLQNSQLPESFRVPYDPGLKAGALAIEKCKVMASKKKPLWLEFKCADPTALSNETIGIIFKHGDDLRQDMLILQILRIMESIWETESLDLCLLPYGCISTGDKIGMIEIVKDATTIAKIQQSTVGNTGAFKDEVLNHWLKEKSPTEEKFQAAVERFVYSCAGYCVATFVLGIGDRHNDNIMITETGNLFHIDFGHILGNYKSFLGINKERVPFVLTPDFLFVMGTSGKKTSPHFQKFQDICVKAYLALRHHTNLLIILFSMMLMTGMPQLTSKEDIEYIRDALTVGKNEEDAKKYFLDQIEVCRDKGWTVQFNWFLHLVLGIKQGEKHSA
Listed here are compounds together with their documented inhibition at 0.1 µM.
Please state the figure in %; there is no need to write the unit.

Look at this compound and give its reported inhibition at 0.1 µM. Cc1c(CN2CCN(S(C)(=O)=O)CC2)cc2c(N3CCOCC3)nc(-c3cnc(NC(=O)NC(C)C)cc3C(F)(F)F)nn12
30.3

GET /values?readout=inhibition at 0.1 µM&item= Cc1c(CN2CCN(S(C)(=O)=O)CC2)cc2c(N3CCOC[C@@H]3C)nc(-c3cnc(N)cc3C(F)(F)F)nn12
32.1

So what's the measured inhibition at 0.1 µM for this one? Cc1c(CN2CCN(C(=O)C(C)(C)O)CC2)cc2c(N3CCOCC3)nc(-c3cnc(N)cc3C(F)(F)F)nn12
2.16

Can you share its inhibition at 0.1 µM? I mean this compound: Cc1c(CNCCCN(C)C)cc2c(N3CCOCC3)nc(-c3cnc(N)cc3C(F)(F)F)nn12
0.62
